// provenance: patent US10023570B2

# Study target: human KDR protein in HEK-293 cells (Homo sapiens (Human), UniProt P35968)
# Sequence (P35968 20-1356): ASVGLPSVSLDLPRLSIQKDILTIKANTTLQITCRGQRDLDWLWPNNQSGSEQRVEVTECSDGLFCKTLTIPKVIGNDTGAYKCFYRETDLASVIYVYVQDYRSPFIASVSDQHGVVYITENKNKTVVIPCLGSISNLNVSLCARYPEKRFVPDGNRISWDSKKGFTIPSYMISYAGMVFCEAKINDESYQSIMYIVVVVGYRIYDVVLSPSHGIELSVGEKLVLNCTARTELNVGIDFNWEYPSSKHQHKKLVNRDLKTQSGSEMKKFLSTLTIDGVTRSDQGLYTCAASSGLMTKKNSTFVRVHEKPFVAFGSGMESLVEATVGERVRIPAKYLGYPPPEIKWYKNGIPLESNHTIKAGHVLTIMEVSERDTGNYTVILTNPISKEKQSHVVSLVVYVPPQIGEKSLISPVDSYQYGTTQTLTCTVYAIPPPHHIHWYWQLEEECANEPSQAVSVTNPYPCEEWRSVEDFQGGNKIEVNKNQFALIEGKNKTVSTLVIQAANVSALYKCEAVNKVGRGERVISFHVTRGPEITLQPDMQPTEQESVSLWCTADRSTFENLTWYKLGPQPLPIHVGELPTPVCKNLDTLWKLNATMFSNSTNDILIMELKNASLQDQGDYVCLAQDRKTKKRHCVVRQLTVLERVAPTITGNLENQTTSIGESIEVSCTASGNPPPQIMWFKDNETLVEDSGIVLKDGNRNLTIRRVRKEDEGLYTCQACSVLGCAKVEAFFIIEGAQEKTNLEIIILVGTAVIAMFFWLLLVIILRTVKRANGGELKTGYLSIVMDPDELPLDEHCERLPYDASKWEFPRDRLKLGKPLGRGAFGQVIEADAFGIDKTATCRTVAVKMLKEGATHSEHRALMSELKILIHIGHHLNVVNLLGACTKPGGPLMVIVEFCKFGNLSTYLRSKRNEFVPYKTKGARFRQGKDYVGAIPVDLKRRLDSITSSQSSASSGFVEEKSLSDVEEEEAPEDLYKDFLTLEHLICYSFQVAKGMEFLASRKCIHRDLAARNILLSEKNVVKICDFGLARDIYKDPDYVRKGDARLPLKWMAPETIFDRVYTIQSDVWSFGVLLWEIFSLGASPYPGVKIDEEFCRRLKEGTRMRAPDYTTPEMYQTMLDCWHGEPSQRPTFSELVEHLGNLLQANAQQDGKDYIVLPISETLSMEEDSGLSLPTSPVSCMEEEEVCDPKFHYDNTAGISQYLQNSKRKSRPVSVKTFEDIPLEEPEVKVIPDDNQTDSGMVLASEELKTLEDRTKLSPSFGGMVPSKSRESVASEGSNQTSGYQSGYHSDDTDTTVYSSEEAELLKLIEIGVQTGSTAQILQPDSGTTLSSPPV
# Procedure text: KDR Cell Assay (phospho-KDR in HEK-293 cells expressing inducible KDR)
# Assay type: cell-based
# Settings: pKDR Cell HEK 10% FBS IC50, HEK-293 cells expressing inducible KDR, VEGF stimulated, 10% FBS
Structures can show the parent of a compound that is named as a salt.
Note to self: IC50 under 0.7 µM means t, ties and anything higher get f.

{"Compound": "Cn1ccc(-c2cc(-c3ccc(N4CCN(C(=O)[C@H](O)c5ccccc5)CC4)nc3)c3c(C#N)cnn3c2)n1", "Assigned category": "t"}
{"Compound": "CC(C)[C@@H](O)C(=O)N1CCN(c2ccc(-c3cc(-c4cnn(C)c4)cn4ncc(C#N)c34)cn2)CC1", "Assigned category": "f"}
{"Compound": "COCC(C)NC(=O)C1(C)CCN(c2ccc(-c3cc(-c4cnn(C)c4)cn4ncc(C#N)c34)cn2)CC1 (centres unmarked)", "Assigned category": "t"}
{"Compound": "Cn1cc(-c2cc(-c3ccc(N4CCN(C(=O)Cc5c(F)cccc5F)CC4)nc3)c3c(C#N)cnn3c2)cn1 [Example 39, trifluoroacetate]", "Assigned category": "t"}
{"Compound": "CN(C)C(=O)CCN1CCN(c2ccc(-c3cc(-c4cnn(C)c4)cn4ncc(C#N)c34)cn2)CC1 [Example 146, trifluoroacetate]", "Assigned category": "f"}

====

# Study target: human KDR protein in HEK-293 cells (Homo sapiens (Human))
# Procedure text: KDR Cell Assay (phospho-KDR in HEK-293 cells expressing inducible KDR)
# Assay type: cell-based
# Settings: pKDR Cell HEK 10% FBS IC50, HEK-293 cells expressing inducible KDR, VEGF stimulated, 10% FBS

{"Molecule": "COC(C)CNC(=O)C1CCN(c2ccc(-c3cc(-c4cnn(C)c4)cn4ncc(C#N)c34)cn2)CC1 (stereo not shown)", "IC50 (nM)": 916}
{"Molecule": "Cn1cc(-c2cc(-c3ccc(N4CC5CCC(C4)N5C(=O)OC(C)(C)C)nc3)c3c(C#N)cnn3c2)cn1", "IC50 (nM)": 1270}
{"Molecule": "Cn1cc(-c2cc(-c3ccc(N4CCN(C(=O)CC(C)(C)C)CC4)nc3)c3c(C#N)cnn3c2)cn1", "IC50 (nM)": 902}
{"Molecule": "COC[C@H]1CCCN1C(=O)N1CCN(c2ccc(-c3cc(-c4cnn(C)c4)cn4ncc(C#N)c34)cn2)CC1", "IC50 (nM)": 1310}
{"Molecule": "C[C@H](CO)Cn1cc(-c2cc(-c3ccc(N4CCN(C(=O)CC(C)(C)C)CC4)cc3)c3c(C#N)cnn3c2)cn1", "IC50 (nM)": 864}
{"Molecule": "Cn1cc(-c2cc(-c3ccc(N4CCN(C(=O)N5CC[C@@H](F)C5)CC4)nc3)c3c(C#N)cnn3c2)cn1", "IC50 (nM)": 848}
{"Molecule": "CC(C)COC1CCN(c2ccc(-c3cc(-c4cnn(C)c4)cn4ncc(C#N)c34)cn2)CC1", "IC50 (nM)": 1300}

====

# Study target: human KDR protein in HEK-293 cells (Homo sapiens (Human), UniProt P35968)
# Procedure text: KDR Cell Assay (phospho-KDR in HEK-293 cells expressing inducible KDR)
# Type: cell-based
# Settings: pKDR Cell HEK 10% FBS IC50, HEK-293 cells expressing inducible KDR, VEGF stimulated, 10% FBS
Counter-ions that a name gives are not always drawn.

{"Compound": "C[C@H](O)CC(=O)N1CCN(c2ccc(-c3cc(-c4cnn(C)c4)cn4ncc(C#N)c34)cn2)CC1", "Study target": "human KDR protein in HEK-293 cells (Homo sapiens (Human), UniProt P35968)", "IC50 [nM]": 1040}
{"Compound": "C[C@@H](O)CC(=O)N1CCN(c2ccc(-c3cc(-c4cnn(C)c4)cn4ncc(C#N)c34)cn2)CC1", "Study target": "human KDR protein in HEK-293 cells (Homo sapiens (Human), UniProt P35968)", "IC50 [nM]": 923}
{"Compound": "Cc1nn(C)cc1C(=O)N1CCN(c2ccc(-c3cc(-c4cnn(C)c4)cn4ncc(C#N)c34)cn2)CC1 [Example 41, trifluoroacetate]", "Study target": "human KDR protein in HEK-293 cells (Homo sapiens (Human), UniProt P35968)", "IC50 [nM]": 871}
{"Compound": "Cn1cc(-c2cc(-c3ccc(N4CCN(CCc5ccc(Cl)cc5)CC4)nc3)c3c(C#N)cnn3c2)cn1", "Study target": "human KDR protein in HEK-293 cells (Homo sapiens (Human), UniProt P35968)", "IC50 [nM]": 712}

====

Listed here: items and their measured pIC50.
# Study target: Kif5b-RET fusion protein in HEK-293 cells (Homo sapiens, UniProt P07949)
# Sequence (P07949 29-1114 limits assumed): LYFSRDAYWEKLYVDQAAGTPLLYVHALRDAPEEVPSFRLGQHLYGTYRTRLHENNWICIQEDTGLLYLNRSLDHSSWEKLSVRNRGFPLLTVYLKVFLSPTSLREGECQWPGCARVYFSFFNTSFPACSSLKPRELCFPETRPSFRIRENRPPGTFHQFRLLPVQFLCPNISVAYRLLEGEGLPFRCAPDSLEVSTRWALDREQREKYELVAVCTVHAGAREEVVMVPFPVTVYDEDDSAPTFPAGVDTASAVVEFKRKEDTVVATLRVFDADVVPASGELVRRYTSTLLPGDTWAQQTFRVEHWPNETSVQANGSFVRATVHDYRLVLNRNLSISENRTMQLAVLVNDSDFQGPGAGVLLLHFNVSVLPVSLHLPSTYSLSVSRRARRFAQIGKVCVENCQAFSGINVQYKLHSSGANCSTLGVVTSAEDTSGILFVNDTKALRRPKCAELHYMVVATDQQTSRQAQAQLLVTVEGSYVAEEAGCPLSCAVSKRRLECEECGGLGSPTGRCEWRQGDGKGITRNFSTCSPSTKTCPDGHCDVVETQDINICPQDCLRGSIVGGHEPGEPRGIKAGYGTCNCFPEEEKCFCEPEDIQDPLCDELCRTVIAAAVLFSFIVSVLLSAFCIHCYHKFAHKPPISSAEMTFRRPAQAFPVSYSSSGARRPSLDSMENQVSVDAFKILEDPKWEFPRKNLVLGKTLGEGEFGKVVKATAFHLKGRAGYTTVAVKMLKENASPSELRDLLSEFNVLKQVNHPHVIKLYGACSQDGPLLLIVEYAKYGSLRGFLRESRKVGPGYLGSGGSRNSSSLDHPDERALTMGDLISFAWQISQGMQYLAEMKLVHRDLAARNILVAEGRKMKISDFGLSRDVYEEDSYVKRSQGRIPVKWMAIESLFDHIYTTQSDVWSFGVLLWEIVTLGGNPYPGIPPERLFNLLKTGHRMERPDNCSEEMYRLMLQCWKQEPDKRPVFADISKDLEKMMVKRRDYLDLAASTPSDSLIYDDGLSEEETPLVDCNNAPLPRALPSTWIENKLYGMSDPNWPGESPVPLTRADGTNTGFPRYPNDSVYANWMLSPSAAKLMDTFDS
# Procedure text: cell-based
# Settings: HEK-293 cells expressing Kif5b-RET; read-out: KIF5B-RET pTYR1062 Cell IC50
# Description: The cellular potency of a compound inhibiting RET kinase was determined in HEK-293 cells expressing a Kif5b-RET fusion protein. Briefly, HEK-293 cells expressing a Kif5b-RET fusion protein were plated at 50K cells/well in 96 well poly-D-Lysine coated plates the day prior to the assay. […] The plates were washed with PBS-0.05% Tween20, 100 μL PBS was added to each well, and the plates were read on a LI-COR Aerius fluorescent plate reader. […]
pIC50: −log10 of the molar value.

{"Compound": "COc1ccc(CN2CCN(c3ccc(-c4cc(-c5cnn(CC(C)OC)c5)cn5ncc(C#N)c45)cn3)CC2)cn1 (stereo not drawn) [Example 709]", "Study target": "Kif5b-RET fusion protein in HEK-293 cells (Homo sapiens, UniProt P07949)", "pIC50": 8.03}
{"Compound": "C[C@@H](CO)Cn1cc(-c2cc(-c3ccc(N4CCN(Cc5ccccc5)CC4)nc3)c3c(C#N)cnn3c2)cn1 [Example 592]", "Study target": "Kif5b-RET fusion protein in HEK-293 cells (Homo sapiens, UniProt P07949)", "pIC50": 7.76}
{"Compound": "CO[C@H](C)CN1CCN(c2ccc(-c3cc(-c4cnn(C)c4)cn4ncc(C#N)c34)cn2)CC1 [Example 412]", "Study target": "Kif5b-RET fusion protein in HEK-293 cells (Homo sapiens, UniProt P07949)", "pIC50": 7.74}

====

# Study target: human KDR protein in HEK-293 cells (Homo sapiens (Human), UniProt P35968)
# Procedure text: KDR Cell Assay (phospho-KDR in HEK-293 cells expressing inducible KDR)
# Assay type: cell-based
# Settings: pKDR Cell HEK 10% FBS IC50, HEK-293 cells expressing inducible KDR, VEGF stimulated, 10% FBS
pIC50: −log10 of the molar value.
Measured pIC50 of individual entries

{"Compound": "Cn1cc(-c2cc(-c3ccc(N4CCN(C(=O)C5(c6ccccc6)CCCC5)CC4)nc3)c3c(C#N)cnn3c2)cn1 [Example 24]", "Study target": "human KDR protein in HEK-293 cells (Homo sapiens (Human), UniProt P35968)", "pIC50": 6.02}
{"Compound": "CN(C)C(=O)N1CCN(c2ccc(-c3cc(-c4cnn(C)c4)cn4ncc(C#N)c34)cn2)CC1 [Example 132]", "Study target": "human KDR protein in HEK-293 cells (Homo sapiens (Human), UniProt P35968)", "pIC50": 5.94}
{"Compound": "Cn1cc(-c2cc(-c3ccc(N4CCN(C(=O)C5(c6ccccc6)CCC5)CC4)nc3)c3c(C#N)cnn3c2)cn1 [Example 27]", "Study target": "human KDR protein in HEK-293 cells (Homo sapiens (Human), UniProt P35968)", "pIC50": 6.19}

====

# Study target: human KDR protein in HEK-293 cells (Homo sapiens (Human))
# Procedure text: KDR Cell Assay (phospho-KDR in HEK-293 cells expressing inducible KDR)
# Assay type: cell-based
# Settings: pKDR Cell HEK 10% FBS IC50, HEK-293 cells expressing inducible KDR, VEGF stimulated, 10% FBS
pIC50: −log10 of the molar value.
Readout kind: pIC50

{"Compound": "Cn1cc(-c2cc(-c3ccc(N4CCN(C(=O)NC(C)(C)C)CC4)nc3)c3c(C#N)cnn3c2)cn1", "Comparative sign": "=", "Measured number": 6.26}
{"Compound": "Cn1cc(-c2cc(-c3ccc(N4CCN(S(=O)(=O)NC(C)(C)C)CC4)nc3)c3c(C#N)cnn3c2)cn1", "Comparative sign": "=", "Measured number": 7.15}
{"Compound": "Cn1cc(-c2cc(-c3ccc(N4CCN(C(=O)Cc5ccnn5C)CC4)nc3)c3c(C#N)cnn3c2)cn1", "Comparative sign": "=", "Measured number": 5.78}
{"Compound": "CO[C@H](C(=O)N1CCN(c2ccc(-c3cc(-c4cnn(C)c4)cn4ncc(C#N)c34)cn2)CC1)c1ccccc1", "Comparative sign": "=", "Measured number": 5.90}
{"Compound": "CCONC(=O)C1CCN(c2ccc(-c3cc(-c4cnn(C)c4)cn4ncc(C#N)c34)cn2)CC1", "Comparative sign": "=", "Measured number": 6.08}
{"Compound": "Cn1cc(-c2cc(-c3ccc(N4CCN(C(=O)[C@H](O)c5ccccc5)CC4)nc3)c3ccnn3c2)cn1", "Comparative sign": "≤", "Measured number": 5.30}
{"Compound": "Cn1cc(-c2cc(-c3ccc(N4CCN(C(=O)C(c5ccccc5)N5CCOCC5)CC4)nc3)c3c(C#N)cnn3c2)cn1 (centres unmarked) [Example 363, bis(2,2,2-trifluoroacetate)]", "Comparative sign": "=", "Measured number": 5.58}
{"Compound": "Cn1cc(-c2cc(-c3ccc(N4CCN(C(=O)C[C@H](NC(=O)OC(C)(C)C)c5ccccc5)CC4)nc3)c3c(C#N)cnn3c2)cn1", "Comparative sign": "=", "Measured number": 7.08}
{"Compound": "CN(C)C(=O)NC1CCN(c2ccc(-c3cc(-c4cnn(C)c4)cn4ncc(C#N)c34)cn2)CC1", "Comparative sign": "=", "Measured number": 6.35}
{"Compound": "Cn1cc(-c2cc(-c3ccc(N4CCN(C(=O)[C@H](O)c5ccccc5)CC4)nc3)c3c(C#N)cnn3c2)cn1", "Comparative sign": "=", "Measured number": 7.04}
{"Compound": "COC(=O)N1CCN(c2ccc(-c3cc(-c4cnn(C)c4)cn4ncc(C#N)c34)cc2)CC1", "Comparative sign": "=", "Measured number": 5.74}
{"Compound": "Cn1cc(-c2cc(-c3ccc(N4CCN(C(=O)N5CC[C@H](F)C5)CC4)nc3)c3c(C#N)cnn3c2)cn1", "Comparative sign": "=", "Measured number": 6.26}
{"Compound": "Cn1cc(-c2cc(-c3ccc(N4CCN(C(=O)N5CC6COCC6C5)CC4)nc3)c3c(C#N)cnn3c2)cn1 (centres unmarked)", "Comparative sign": "=", "Measured number": 5.79}
{"Compound": "COc1ccc(C2(C(=O)N3CCN(c4ccc(-c5cc(-c6cnn(C)c6)cn6ncc(C#N)c56)cn4)CC3)CC2)cc1", "Comparative sign": "=", "Measured number": 6.41}
